These measurements were taken from patent US20260125375A1.

- systemTested: C-CBL (46-435) (Homo sapiens)
- Construct: N-terminal biotinylated WT CBL-B (36-427) and C-CBL (46-435) were captured on a streptavidin (SA) coated sensor chip
- runDescription: Surface Plasmon Resonance (SPR) assay, binding affinity and kinetics, C-CBL
- conditionSet: SPR at 10° C., biotinylated C-CBL (46-435) on streptavidin chip; geometric mean; read-out: C-CBL SPR Kd (nM) GMean
Would you mind telling me the reported Kd of each entry?

Completed entries (count: 2):
C[C@H](N[C@@H]1CC[C@@H]1O)c1nc(C(F)(F)F)cc2c(-c3cccc([C@H](c4nncn4C)C4CCC4)c3)n[nH]c12 (single isomer, unassigned) = 2.2 nM
C[C@@H]1CN([C@@H](C)c2nc(C(F)(F)F)cc3c(-c4cccc(C5(Cc6nncn6C)COC5)c4)n[nH]c23)CCO1 (single isomer, unassigned) = 82 nM

Below: the item to evaluate.
**Q:** Report measured Kd on C-CBL (46-435) (Homo sapiens); entry: C[C@H](c1nc(C(F)(F)F)cc2c(-c3cccc(C4(Cc5nncn5C)COC4)c3)n[nH]c12)N1C[C@H](F)[C@@H](F)C1 (single isomer, unassigned)
**A:** 177 nM

###

- systemTested: C-CBL (residues 46-435) (Homo sapiens, UniProt P22681)
- Construct: Purified CBL-B (residues 36-427) and C-CBL (residues 46-435) proteins from baculovirus-infected insect cells; made in house; host or cells: baculovirus-infected insect cells
- Sequence (P22681 46-435): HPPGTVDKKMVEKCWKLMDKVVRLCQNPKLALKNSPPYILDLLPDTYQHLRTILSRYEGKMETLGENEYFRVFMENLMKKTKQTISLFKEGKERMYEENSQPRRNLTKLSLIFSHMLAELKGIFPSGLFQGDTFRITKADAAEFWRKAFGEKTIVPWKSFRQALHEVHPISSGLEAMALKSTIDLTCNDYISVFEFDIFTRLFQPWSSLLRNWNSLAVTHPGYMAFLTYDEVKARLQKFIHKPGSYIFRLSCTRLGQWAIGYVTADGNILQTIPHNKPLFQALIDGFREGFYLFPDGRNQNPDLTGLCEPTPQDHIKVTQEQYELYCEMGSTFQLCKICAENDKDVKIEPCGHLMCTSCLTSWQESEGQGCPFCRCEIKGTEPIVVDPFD
- runDescription: Ligand Displacement Assay (LDA), HTRF competitive binding against BODIPY-labeled fluorescent tracer, C-CBL
- conditionSet: geometric mean of the number of tests, read-out: C-CBL Ki (nM) GMean
quantityName: Ki (nM)
Numbers only, in nM.

Completed entries (count: 5):
CC(NCCO)c1nc(C(F)(F)F)cc2c(-c3cccc([C@H](c4nncn4C)C4CCC4)c3)n[nH]c12 (single isomer, unassigned) [Example C41] = 30.1
C[C@@H](NC1CC[C@H]1O)c1nc(C(F)(F)F)cc2c(-c3cccc([C@H](c4nncn4C)C4CCC4)c3)n[nH]c12 (single isomer, unassigned) = 27.3
Cn1cnnc1CC1(c2cccc(-c3n[nH]c4c(OC5CCCC5)nc(C(F)(F)F)cc34)c2)COC1 = 420
CC(c1nc(C(F)(F)F)cc2c(-c3cccc(C4(Cc5nncn5C)COC4)c3)n[nH]c12)N1C[C@@H](F)[C@H](F)C1 (single isomer, unassigned) = 33.1
Cn1cnnc1[C@@H](c1cccc(-c2n[nH]c3c(CN4C[C@@H](O)[C@@H](O)C4)nc(C(F)(F)F)cc23)c1)C1CCC1 = 54.8

Below: the item to evaluate.
**Q:** Please report the measured Ki for `C[C@@H]1CCCN(Cc2nc(C(F)(F)F)cc3c(-c4cccc(C5(Cc6nncn6C)COC5)c4)n[nH]c23)C1`
**A:** 46.3
